- protocolSummary: NCI Yeast Anticancer Drug Screen. Data for the mlh1 rad18 strain (AID 175)
- settings: S. cerevisiae mlh1 rad18 strain growth inhibition; at 50.0 µM; hits give high values
The panel holds about 79,000 compounds, 15% with a hit somewhere; the sample as a whole holds those more often.
# growth inhibition >= 20% gives criterion met, anything below gives criterion not met

O=C(COc1ccc(Cl)cc1)NCCOC(=O)COc1ccc(Cl)cc1
criterion met

// inclusive: growth inhibition at least 20%? input: `Nc1ncnc2c1ncn2CCCCCO`
criterion not met

// inclusive: growth inhibition at least 20%? input: `CCCCCCCCCCCCCCCCCC(=O)N/N=C/c1ccc(O)cc1`
criterion not met

// inclusive: growth inhibition at least 20%? input: Cc1ccc(OCC2OC(n3cnc4c(Cl)nc(N)nc43)CC2Oc2ccc(C)cc2)cc1 (centres undefined)
criterion not met

// inclusive: growth inhibition at least 20%? input: CCC1N=C(N)N=C(N)N1c1ccc(Cl)c(Cl)c1 (centres undefined)
criterion met

// inclusive: growth inhibition at least 20%? input: `CC(C)CC/C(=N\NC(N)=O)C1CCOCC1`
criterion not met

// inclusive: growth inhibition at least 20%? input: CC1(c2ccccc2)OCCS1 (centres undefined)
criterion met

// inclusive: growth inhibition at least 20%? input: CCCCCCC1NC(=S)N(c2ccccc2)C1=O (centres undefined)
criterion not met

###

Quick list: growth inhibition per entry.
- protocolSummary: NCI Yeast Anticancer Drug Screen. Data for the rad50 strain (AID 155);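 note: 0% = growth of vehicle-only cultures of the same strain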
- settings: S. cerevisiae rad50 strain growth inhibition; at 50.0 µM; hits give high values
This is part of a sample that, as a whole, favours compounds with a hit. Of some 79,000 tested, about 15% had one in any assay.
// return numeric value only (unit: %, not printed)

Clc1ccccc1NCSC1=NCCS1
5.95
O=C1C=CC(=O)N1C(c1ccccc1)(c1ccccc1)c1ccccc1
99
NC(=S)n1nc(-c2ccccc2)c(N=Nc2ccc(Br)cc2)c1-c1ccccc1
38.6

Please report growth inhibition for the following molecule: CSC1=C(c2ccc(Cl)cc2)SC(N2CCCCC2)N1c1ccc([N+](=O)[O-])cc1 (stereo not drawn)
0.55

Please report growth inhibition for the following molecule: `COC(=O)c1cocc1C(=O)OC`
-13.9

Please report growth inhibition for the following molecule: O=C1CCC2CCC1C2 (stereo not drawn)
10.1

Please report growth inhibition for the following molecule: COc1ccc2c(c1C)OC(C)C2=O (stereo not drawn)
9.65

Please report growth inhibition for the following molecule: `COc1ccccc1NC(=O)C1=C(C)NC(C)=C(C(=O)Nc2ccccc2OC)C1c1ccccc1Cl`
11.3

Please report growth inhibition for the following molecule: `Nc1ccc(C(=O)CC(=O)c2cccc([N+](=O)[O-])c2)cc1`
26.4

Please report growth inhibition for the following molecule: O=C(CC1C(=O)Nc2ccccc2S1=O)Nc1cccc(Cl)c1 (stereo not drawn)
-32.2

Please report growth inhibition for the following molecule: `COC(=O)c1nnn(-c2ccc(C)c(C)c2)c1C(=O)c1ccccc1`
-2.7

Please report growth inhibition for the following molecule: `CCOC(=O)c1c(-c2ccc([N+](=O)[O-])cc2)c(/C=N\O)n(-c2ccccc2)c1C`
1.45

Please report growth inhibition for the following molecule: `CCOC(=O)CCCCC(N)=O`
-4.3

Please report growth inhibition for the following molecule: `CCNc1ccc(C)cc1`
55.4

Please report growth inhibition for the following molecule: CCOC(=O)C(Cc1c[nH]c2ccccc12)NCCN (stereo not drawn)
-4.85

Please report growth inhibition for the following molecule: CC1CC(Cc2ccccc2CC2CC(C)OC2=O)C(=O)O1 (stereo not drawn)
6.95

Please report growth inhibition for the following molecule: Cc1cccc(C)c1NC(=O)C1=NC(=S)NC(c2ccccc2)C1c1nc2ccccc2s1 (stereo not drawn)
-5.7

Please report growth inhibition for the following molecule: `CC(=O)C(N)=NCc1ccccc1`
10.2

###

- protocolSummary: NCI Yeast Anticancer Drug Screen. Data for the mec2-1 strain (AID 157)
- settings: S. cerevisiae mec2-1 strain, at 50.0 µM, hits give high values
- Procedure: Growth inhibition of yeast strains with defined genetic alterations is measured as a screen for potential anti-cancer activity. Selected strains with alterations in DNA damage repair or cell cycle control were exposed to compounds and growth inhibition was measured relative to vehicle treated controls. The strain used in this assay is mec2-1
Compounds without any hit were thinned out: in the full panel of roughly 79,000, 15% have a hit.
Quick list: growth inhibition per entry.
// return numeric value only (unit: %, not printed)

COC(=O)N/N=C(/CC1(O)C(=O)Nc2ccc([N+](=O)[O-])cc21)c1ccccc1 (stereo not drawn)
34.2

Please report growth inhibition for the following compound: COC(=O)c1cc2c(cc1CC(Cc1ccc3c(c1)CCCC3)C(=O)OC)CCCC2 (stereo not drawn)
1.35

Please report growth inhibition for the following compound: CC(=O)NC(c1ccccc1)c1c(O)ccc2ccccc12 (stereo not drawn)
-2.8

###

- protocolSummary: NCI Yeast Anticancer Drug Screen. Data for the mec2-1 strain (AID 157)
- settings: S. cerevisiae mec2-1 strain, at 50.0 µM, hits give high values
About 79,000 compounds went through this panel and 15% of them were active in at least one assay; those are over-represented in the sample as a whole.
Quick list: growth inhibition per entry.
// return numeric value only (unit: %, not printed)

Check out these entries, answers already filled in.
COC1(OC)c2no[n+]([O-])c2CCC1O (stereo not drawn)
-17.4
COC1/C=C\OC2(C)Oc3c(C)c(O)c4c(O)c(c5c(c4c3C2=O)NC2(CCN(C)CC2)N=5)=NC(=O)/C(C)=C\C=C\C(C)C(O)C(C)C(O)C(C)C(OC(C)=O)C1C (stereo not drawn)
3
CC1COCC(C)N1CC(OCc1ccccc1)c1ccccc1 (stereo not drawn)
-2.2
O=c1c(Cc2ccccc2)coc2ccccc12
14.6
N#CNC1=C(C#N)C(c2ccccc2)CC(=O)N1 (stereo not drawn)
25.5
CS(=O)(=O)C1CCCCC1SC#N (stereo not drawn)
-16.7

Please report growth inhibition for the following compound: `c1ccc2c(c1)Cc1ccc3ccccc3c1-2`
28.7

Please report growth inhibition for the following compound: COC1OC(CO)C(O)C(O)C1Br (stereo not drawn)
13.9

###

- protocolSummary: NCI Yeast Anticancer Drug Screen. Data for the mec2-1 strain (AID 157)
- settings: S. cerevisiae mec2-1 strain, at 50.0 µM, hits give high values
The panel holds about 79,000 compounds, 15% with a hit somewhere; the sample as a whole holds those more often.
metric: growth inhibition (%)
// return numeric value only (unit: %, not printed)

Check out these entries, answers already filled in.
CCOC(=O)CCC(NC(=O)C(N)c1ccc([N+](=O)[O-])cc1)C(=O)NC(CCC(=O)OCC)C(=O)OCC (centres undefined)
-7.5
O[C@]12c3ccccc3C1CCCCC2N1CCOCC1 (some centres undefined)
-41
Cc1nn(CCO)c2nc(N)nc(N)c12
3.35

Proceed to the following item.
Please report growth inhibition for the following compound: `CCOC(=O)/C(=C\n1c(=O)[nH]c(=O)[nH]c1=S)C(=O)c1ccccc1`
-17.4

###

- protocolSummary: NCI Yeast Anticancer Drug Screen. Data for the mec2-1 strain (AID 157)
- settings: S. cerevisiae mec2-1 strain, at 50.0 µM
This is part of a sample that, as a whole, favours compounds with a hit. Of some 79,000 tested, about 15% had one in any assay. Active and inactive are the calls of the source. Rule as the data show it: active = growth inhibition above about 70%; inactive = the rest.
Outcomes you can answer with include only these: yes (1) for active, no (0) for inactive

Look over these answered cases.
O=C(Cc1ccccc1)NN1C(=O)/C(=C\c2ccccc2)SC1=Nc1ccccc1
no (0)
BrCc1cccc2cccc(CBr)c12
no (0)
N#CC(/C(=N\NC(=O)c1ccncc1)C(=O)Nc1ccc([N+](=O)[O-])cc1[N+](=O)[O-])c1nc(-c2ccc(Br)cc2)cs1 (centres undefined)
no (0)

Check the results log: what was the call for O=C(NNc1ccccc1)C1C2CC3OC(=O)C1C3C2 (centres undefined) ?
yes (1)

###

- protocolSummary: NCI Yeast Anticancer Drug Screen. Data for the bub3 strain (AID 167)
- settings: S. cerevisiae bub3 mutant strain, at 50.0 µM, hits give high values
Compounds without any hit were thinned out: in the full panel of roughly 79,000, 15% have a hit.
Quick list: growth inhibition per entry.
// return numeric value only (unit: %, not printed)

N=C(N)SCc1cccc2ccc3cccc(CSC(=N)N)c3c12
2.6
CN1C(=O)NC(=O)C1(C)C=O (stereo not drawn)
10.9
CCCCC(ON=C(C)C)C(=O)OC (stereo not drawn)
1.25
O=[N+]([O-])c1ccccc1S(=O)(=O)c1cc(Cl)cc2c1NCCC2
38.8
NC(=O)C(=CNC(=S)Nc1ccc(S(N)(=O)=O)cc1)C(N)=O
-10.4
CC(C)CCC(=O)O
3.8
COC(=O)c1ccc(NCC2=CC(=O)c3ccccc3C2=O)cc1
54
COc1ccc(OC)c(C(=O)C=C(C(F)(F)F)C(F)(F)F)c1
-9.3
C=CCn1c(=O)cc[nH]c1=S
-1.05
CC(=O)O[C@@H]1C[C@H](C)CC(C)(C)C1
0.4

Please report growth inhibition for the following compound: `Nc1cc(=O)[nH]c(=S)n1-c1ccccc1`
-2.5

Please report growth inhibition for the following compound: `COc1ccccc1-c1cc(=O)c2c(C)cc(C)nc2[nH]1`
6.25

Please report growth inhibition for the following compound: N#CCc1ccc(C(C#N)C(=O)CCC(=O)C(C#N)c2ccc(CC#N)cc2)cc1 (stereo not drawn)
-0.3
